Provenance of the data: patent US20200181195A1

- study-system: T1, HLA-A*24:02 molecule (HLA-A*24:02 gene product) (human)
- T1 construct: MHC class I on acid-stripped C1R-A24 cells; The endogenous peptide and b2m were removed, then purified b2m was added
- protocol-details: flow cytometry, acid-stripped C1R-A24 cells + purified b2m, peptide dilution series, 17A12 staining
assay-metric: Data of binding experiment (log Kd)
Give bare numbers, in log Kd.

STGVSFFFL (Only the start position in MUC1 is printed; The end of the range follows from the length of 9 residues) [STGVSFFFL (Seq. ID No. 10)] = -5.17

Respectfully, I request Data of binding experiment (log Kd) for each entry included below.
1. FLGLSNIKF (Only the start position in MUC1 is printed; The end of the range follows from the length of 9 residues) [FLGLSNIKF (Seq. ID No. 1)]
2. GVPGWGIAL (Only the start position in MUC1 is printed; The end of the range follows from the length of 9 residues) [GVPGWGIAL (Seq. ID No. 3)]
3. LQRDISEMF (Only the start position in MUC1 is printed; The end of the range follows from the length of 9 residues) [LQRDISEMF (Seq. ID No. 6)]
4. TLAFREGTI (Only the start position in MUC1 is printed; The end of the range follows from the length of 9 residues) [TLAFREGTI (Seq. ID No. 9)]

Reply:
1. -7.07
2. -5.93
3. -6.65
4. -5.97
